target or test system: T1, PSMA Fab
T1 construct: also called Anti-PSMA Fab; 006 PSMA Fab
assay protocol: phage binding ELISA; biotinylated PSMA Fab on neutravidin plate, wells pre-incubated with PSMA antigen as competitor, clonal phage supernatant, anti-M13 HRP detection
Where no end group is shown, it is not given here.
readout: Phage binding ELISA signal, Anti-PSMA Fab in presence of PSMA

These recorded examples may help you get a feel for the data.
HDPACVPSWMCFGF (cysteine pairing not given here; also: fused to phage pIII, linker and order not given here, Peptide-180 library clone, tested as clonal phage supernatant; not shown: pIII filament protein of the bacteriophage, to which the peptide is fused) [Phage-3207] | 0.0668
VTVRCEPAWMCMGF (cysteine pairing not given here; also: fused to phage pIII, linker and order not given here, Peptide-180 library clone, tested as clonal phage supernatant; not shown: pIII filament protein of the bacteriophage, to which the peptide is fused) [Phage-3199] | 0.0999
VSVRCEPEWMCMGF (cysteine pairing not given here; also: fused to phage pIII, linker and order not given here, Peptide-180 library clone, tested as clonal phage supernatant; not shown: pIII filament protein of the bacteriophage, to which the peptide is fused) [Phage-3203] | 0.0741

Reported Phage binding ELISA signal, Anti-PSMA Fab in presence of PSMA for VTPLCVPKWMCELF (cysteine pairing not given here; also: fused to phage pIII, linker and order not given here, Peptide-180 library clone, tested as clonal phage supernatant; not shown: pIII filament protein of the bacteriophage, to which the peptide is fused) [Phage-3200] : what is it? 0.0878
